Tested on: transplanted tumor of human glioblastoma cell A172
Conditions: mouse, in vivo, 50 mg/kg
Listed here: items and their measured Body Weight (g) (d1).

compound: COC1C(OC(C)=O)CC(=O)OC(C)CC=CC=CC(OC2CCC(N(C)C)C(C)O2)C(C)CC(CC=O)C1OC1OC(C)C(OC2CC(C)(O)C(OC(=O)CC(C)C)C(C)O2)C(N(C)C)C1O (stereo not shown) [Isovaleryl spiramycin II, isovaleryl spiramycin II]
Body Weight (g) (d1): 21.08
//
compound: Cn1nnc2c(C(N)=O)ncn2c1=O [temozolomide, reference compound]
Body Weight (g) (d1): 21.07
//
compound: CO[C@@H]1[C@@H](O[C@@H]2O[C@H](C)[C@@H](O[C@H]3C[C@@](C)(O)[C@@H](OC(=O)CC(C)C)[C@H](C)O3)[C@H](N(C)C)[C@H]2O)[C@@H](CC=O)C[C@@H](C)[C@@H](O[C@H]2CC[C@H](N(C)C)[C@@H](C)O2)/C=C/C=C/C[C@@H](C)OC(=O)C[C@H]1O [Isovaleryl spiramycin I, isovaleryl spiramycin I]
Body Weight (g) (d1): 21.00
//
compound: CCC(=O)O[C@@H]1CC(=O)O[C@H](C)C/C=C/C=C/[C@H](O[C@H]2CC[C@H](N(C)C)[C@@H](C)O2)[C@H](C)C[C@H](CC=O)[C@H](O[C@@H]2O[C@H](C)[C@@H](O[C@H]3C[C@@](C)(O)[C@@H](OC(=O)CC(C)C)[C@H](C)O3)[C@H](N(C)C)[C@H]2O)[C@H]1OC [Isovaleryl spiramycin III, isovaleryl spiramycin III]
Body Weight (g) (d1): 21.59
